Assay: Solubility assessment, visually estimated by dosing solvent aliquots into 10.0 mg API
Type: physicochemical
Settings: organic solvent or mixture, thermodynamic from solid; THF, 40° C.; read-out: Solubility at 40° C.
metric: solubility

Lab note: measured solubility of Cc1cnc(Nc2ccc(OCCN3CCCC3)cc2)nc1Nc1cccc(S(=O)(=O)NC(C)(C)C)c1 [Form A] was < 5000 µg/mL

###

Assay: Solubility assessment, visually estimated by dosing solvent aliquots into 10.0 mg API
Format: physicochemical
Conditions: organic solvent or mixture, thermodynamic from solid; IPA, RT; read-out: Solubility at RT
metric: solubility

Value of solubility reported for the molecule Cc1cnc(Nc2ccc(OCCN3CCCC3)cc2)nc1Nc1cccc(S(=O)(=O)NC(C)(C)C)c1 [Form A] is < 5000 µg/mL

###

Assay: Solubility assessment, visually estimated by dosing solvent aliquots into 10.0 mg API
Format: physicochemical
Conditions: organic solvent or mixture, thermodynamic from solid; IPA:water (9:1) v/v, RT; read-out: Solubility at RT
metric: solubility

Entry Cc1cnc(Nc2ccc(OCCN3CCCC3)cc2)nc1Nc1cccc(S(=O)(=O)NC(C)(C)C)c1 [Form A] — recorded solubility = < 5000 µg/mL

###

Assay: Solubility assessment, visually estimated by dosing solvent aliquots into 10.0 mg API
Assay type: physicochemical
Details: organic solvent or mixture, thermodynamic from solid; THF, RT; read-out: Solubility at RT
metric: solubility

solubility for Cc1cnc(Nc2ccc(OCCN3CCCC3)cc2)nc1Nc1cccc(S(=O)(=O)NC(C)(C)C)c1 [Form A] is < 5000 µg/mL

###

Assay: Solubility assessment, visually estimated by dosing solvent aliquots into 10.0 mg API
Format: physicochemical
Conditions: organic solvent or mixture, thermodynamic from solid; MTBE, RT; read-out: Solubility at RT
metric: solubility

Reported solubility of Cc1cnc(Nc2ccc(OCCN3CCCC3)cc2)nc1Nc1cccc(S(=O)(=O)NC(C)(C)C)c1 [Form A] : < 5000 µg/mL

###

Test: Solubility assessment, visually estimated by dosing solvent aliquots into 10.0 mg API
Assay type: physicochemical
Conditions: all other solvents evaluated (of 12; not DMSO, MeOH, water), organic solvent or mixture, thermodynamic from solid; in all other solvents evaluated; read-out: low solubility
metric: solubility

Documented solubility of Cc1cnc(Nc2ccc(OCCN3CCCC3)cc2)nc1Nc1cccc(S(=O)(=O)NC(C)(C)C)c1 [Form A] : ≤ 5000 µg/mL

###

Assay: Solubility assessment, visually estimated by dosing solvent aliquots into 10.0 mg API
Format: physicochemical
Conditions: organic solvent or mixture, thermodynamic from solid; IPA, 40° C.; read-out: Solubility at 40° C.
metric: solubility

The compound listed as Cc1cnc(Nc2ccc(OCCN3CCCC3)cc2)nc1Nc1cccc(S(=O)(=O)NC(C)(C)C)c1 [Form A] has a reported solubility of < 5000 µg/mL

###

Experiment: Solubility assessment, visually estimated by dosing solvent aliquots into 10.0 mg API
Format: physicochemical
Details: organic solvent or mixture, thermodynamic from solid; Toluene, RT; read-out: Solubility at RT
metric: solubility

What the record says about Cc1cnc(Nc2ccc(OCCN3CCCC3)cc2)nc1Nc1cccc(S(=O)(=O)NC(C)(C)C)c1 [Form A] : solubility is < 5000 µg/mL

###

Experiment: Solubility assessment, visually estimated by dosing solvent aliquots into 10.0 mg API
Format: physicochemical
Conditions: organic solvent or mixture, thermodynamic from solid; IPE, RT; read-out: Solubility at RT
metric: solubility

// recorded solubility for Cc1cnc(Nc2ccc(OCCN3CCCC3)cc2)nc1Nc1cccc(S(=O)(=O)NC(C)(C)C)c1 [Form A] : < 5000 µg/mL
